Peptide text beside a SMILES is read from it. * marks the point of attachment. Palmitoyl = CCCCCCCCCCCCCCCC(=O)*
Entries with reported Ki on Galanin receptor type 2 (Homo sapiens, UniProt O43603)
endpoint: Ki (nM)

[[record]]
compound = "CCCCCCCCCCCCCCCC(=O)NCCCC[C@H](NC(=O)[C@H](CCCCN)NC(=O)[C@H](CCCCN)NC(=O)[C@@H]1CCCN1C(=O)CNC(=O)[C@H](CC(C)C)NC(=O)[C@H](CC(C)C)NC(=O)[C@H](Cc1ccc(O)cc1)NC(=O)CNC(=O)[C@H](C)NC(=O)[C@H](CO)NC(=O)[C@H](CC(N)=O)NC(=O)[C@H](CC(C)C)NC(=O)[C@@H](NC(=O)[C@@H](N)Cc1c[nH]c2ccccc12)[C@@H](C)O)C(=O)N[C@@H](CCCCN)C(N)=O (H-WTLNSAGYLLGPKKK(Palmitoyl)K-NH2)"
endpoint = "Ki"
readoutvalue = 48

[[record]]
compound = "CCCCCCCCCCCCCCCC(=O)NCCCC[C@H](NC(=O)[C@H](CCCCN)NC(=O)[C@H](CCCCN)NC(=O)[C@@H]1CCCN1C(=O)CNC(=O)[C@H](CC(C)C)NC(=O)[C@H](CC(C)C)NC(=O)[C@H](Cc1ccc(O)cc1)NC(=O)CNC(=O)[C@H](C)NC(=O)[C@H](CO)NC(=O)[C@H](CC(N)=O)NC(=O)[C@H](CC(C)C)NC(=O)[C@@H](NC(=O)[C@H](Cc1c[nH]c2ccccc12)NC(=O)CCCCCN)[C@@H](C)O)C(=O)N[C@@H](CCCCN)C(N)=O"
endpoint = "Ki"
readoutvalue = 51


---

Listed next: entries and their corresponding pKi.
Target: Galanin receptor type 2 (Homo sapiens)
Sequence (O43603 whole entry): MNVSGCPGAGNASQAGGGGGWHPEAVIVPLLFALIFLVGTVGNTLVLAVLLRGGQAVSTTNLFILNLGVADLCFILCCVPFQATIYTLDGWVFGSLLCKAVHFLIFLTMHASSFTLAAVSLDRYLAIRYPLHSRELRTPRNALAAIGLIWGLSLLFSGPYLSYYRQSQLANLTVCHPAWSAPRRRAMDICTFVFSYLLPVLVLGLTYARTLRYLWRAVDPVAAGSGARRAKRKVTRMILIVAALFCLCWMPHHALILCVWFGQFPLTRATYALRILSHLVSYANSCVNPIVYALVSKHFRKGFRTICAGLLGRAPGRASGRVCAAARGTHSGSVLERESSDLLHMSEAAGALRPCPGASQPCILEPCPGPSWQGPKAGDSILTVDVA
pKi: −log10 of the molar value.
endpoint: pKi

[[record]]
smilesrepr = "CCCCCCCCCCCCCCCC(=O)NCCCC[C@H](NC(=O)[C@H](CCCCN)NC(=O)[C@H](CCCCN)NC(=O)[C@H](CC(C)C)NC(=O)[C@H](CC(C)C)NC(=O)[C@H](Cc1ccc(O)cc1)NC(=O)CNC(=O)[C@H](C)NC(=O)[C@H](CO)NC(=O)[C@H](CC(N)=O)NC(=O)[C@H](CC(C)C)NC(=O)[C@@H](NC(=O)[C@H](Cc1c[nH]c2ccccc12)NC(=O)CNC)[C@@H](C)O)C(=O)N[C@@H](CCCCN)C(N)=O"
endpoint = "pKi"
readoutvalue = 5.88

[[record]]
smilesrepr = "CCCCCCCCCCCCCCCC(=O)NCCCC[C@H](NC(=O)[C@H](C)NC(=O)[C@H](Cc1cnc[nH]1)NC(=O)[C@@H]1CCCN1C(=O)CNC(=O)[C@H](CC(C)C)NC(=O)[C@H](CC(C)C)NC(=O)[C@H](Cc1ccc(O)cc1)NC(=O)CNC(=O)[C@H](C)NC(=O)[C@H](CO)NC(=O)[C@H](CC(N)=O)NC(=O)[C@H](CC(C)C)NC(=O)[C@@H](NC(=O)[C@H](Cc1c[nH]c2ccccc12)NC(=O)CNC)[C@@H](C)O)C(N)=O"
endpoint = "pKi"
readoutvalue = 6.80

[[record]]
smilesrepr = "CCCCCCCCCCCCCCCC(=O)NCCCC[C@H](NC(=O)[C@H](CCCCN)NC(=O)[C@H](CCCCN)NC(=O)[C@@H]1CCCN1C(=O)CNC(=O)[C@H](CC(C)C)NC(=O)[C@H](CC(C)C)NC(=O)[C@H](Cc1ccc(O)cc1)NC(=O)CNC(=O)[C@H](C)NC(=O)[C@H](CO)NC(=O)[C@H](CC(N)=O)NC(=O)[C@H](CC(C)C)NC(=O)[C@@H](NC(=O)[C@H](Cc1c[nH]c2ccccc12)NC(=O)CNC)[C@@H](C)O)C(=O)N[C@@H](CCCCN)C(N)=O"
endpoint = "pKi"
readoutvalue = 7.29

